These measurements were taken from ChEMBL document CHEMBL5291721.

I'd be grateful if you could share measured AC50 for these entries.
Assay target: Voltage-dependent L-type calcium channel subunit alpha-1C (Rattus norvegicus, UniProt P22002); further: assay procedure not described here
Sequence (P22002 whole entry): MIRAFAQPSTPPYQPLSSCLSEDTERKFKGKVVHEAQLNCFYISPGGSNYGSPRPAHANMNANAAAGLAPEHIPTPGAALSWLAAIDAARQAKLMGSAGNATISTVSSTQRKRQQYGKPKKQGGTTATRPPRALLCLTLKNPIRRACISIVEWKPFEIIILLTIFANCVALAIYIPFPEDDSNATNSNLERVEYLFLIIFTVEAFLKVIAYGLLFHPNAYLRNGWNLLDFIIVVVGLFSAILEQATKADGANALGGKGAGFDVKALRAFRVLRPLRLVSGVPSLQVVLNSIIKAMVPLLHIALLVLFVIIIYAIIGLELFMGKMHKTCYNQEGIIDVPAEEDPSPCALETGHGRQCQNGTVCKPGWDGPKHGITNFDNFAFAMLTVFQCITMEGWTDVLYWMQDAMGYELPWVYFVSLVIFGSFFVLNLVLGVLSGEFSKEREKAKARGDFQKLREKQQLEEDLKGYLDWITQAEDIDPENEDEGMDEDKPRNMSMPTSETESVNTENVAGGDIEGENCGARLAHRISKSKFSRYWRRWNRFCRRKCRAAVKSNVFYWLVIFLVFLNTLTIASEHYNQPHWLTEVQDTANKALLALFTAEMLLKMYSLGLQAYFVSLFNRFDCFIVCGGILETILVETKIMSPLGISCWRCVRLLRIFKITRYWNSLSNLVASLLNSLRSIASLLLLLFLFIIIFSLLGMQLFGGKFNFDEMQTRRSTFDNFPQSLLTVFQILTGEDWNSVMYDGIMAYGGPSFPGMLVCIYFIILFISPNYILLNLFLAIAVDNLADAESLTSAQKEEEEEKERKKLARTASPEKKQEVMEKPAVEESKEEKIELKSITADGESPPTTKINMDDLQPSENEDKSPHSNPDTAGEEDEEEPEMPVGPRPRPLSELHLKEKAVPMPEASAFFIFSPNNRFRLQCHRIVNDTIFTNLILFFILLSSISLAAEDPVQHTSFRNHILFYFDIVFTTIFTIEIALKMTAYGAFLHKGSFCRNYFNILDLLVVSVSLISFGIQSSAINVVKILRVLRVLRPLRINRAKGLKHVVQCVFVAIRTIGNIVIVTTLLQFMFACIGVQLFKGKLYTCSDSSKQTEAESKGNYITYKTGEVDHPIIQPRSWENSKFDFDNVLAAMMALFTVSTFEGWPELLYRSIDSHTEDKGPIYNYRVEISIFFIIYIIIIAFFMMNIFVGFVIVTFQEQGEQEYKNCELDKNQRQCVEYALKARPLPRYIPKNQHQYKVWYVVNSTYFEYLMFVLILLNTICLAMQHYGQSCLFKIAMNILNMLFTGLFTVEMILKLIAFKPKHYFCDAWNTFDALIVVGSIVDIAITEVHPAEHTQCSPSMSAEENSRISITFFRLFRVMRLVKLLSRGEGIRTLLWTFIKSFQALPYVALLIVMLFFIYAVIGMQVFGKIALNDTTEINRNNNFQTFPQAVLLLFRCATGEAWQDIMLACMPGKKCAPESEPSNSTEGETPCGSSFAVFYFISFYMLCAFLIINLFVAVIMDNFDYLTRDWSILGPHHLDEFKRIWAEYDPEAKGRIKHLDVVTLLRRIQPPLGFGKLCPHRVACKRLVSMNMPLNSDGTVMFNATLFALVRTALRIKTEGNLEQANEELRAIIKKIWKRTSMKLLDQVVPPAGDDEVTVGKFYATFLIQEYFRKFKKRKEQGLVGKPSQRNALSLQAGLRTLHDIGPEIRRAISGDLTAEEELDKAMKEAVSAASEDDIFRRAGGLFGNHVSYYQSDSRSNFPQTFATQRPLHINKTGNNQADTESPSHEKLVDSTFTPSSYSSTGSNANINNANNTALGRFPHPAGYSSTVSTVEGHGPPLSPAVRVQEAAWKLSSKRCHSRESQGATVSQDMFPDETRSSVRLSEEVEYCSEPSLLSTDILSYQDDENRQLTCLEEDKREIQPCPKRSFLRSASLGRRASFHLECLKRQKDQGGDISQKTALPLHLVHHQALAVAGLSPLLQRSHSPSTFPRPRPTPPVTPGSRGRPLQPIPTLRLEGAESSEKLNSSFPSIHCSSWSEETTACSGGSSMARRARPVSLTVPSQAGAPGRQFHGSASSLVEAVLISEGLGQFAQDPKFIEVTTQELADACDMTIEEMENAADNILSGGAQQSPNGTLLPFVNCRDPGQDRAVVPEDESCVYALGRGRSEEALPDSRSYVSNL
Assay type: functional

Asked: GET /values?readout=AC50&item= CCOC(=O)[C@H](CCc1ccccc1)N[C@H]1CCCN2CCC[C@@H](C(=O)O)N2C1=O [CILAZAPRIL]
Given back: > 30 µM

Asked: GET /values?readout=AC50&item= CN1CC[C@]23CCCC[C@H]2[C@H]1Cc1ccc(O)cc13 [LEVORPHANOL]
Given back: > 10 µM

Asked: GET /values?readout=AC50&item= CCCCOc1cc(C(=O)NCCN(CC)CC)c2ccccc2n1 [DIBUCAINE]
Given back: > 10 µM

Asked: GET /values?readout=AC50&item= CCCS(=O)(=O)Nc1ccc(F)c(C(=O)c2c[nH]c3ncc(-c4ccc(Cl)cc4)cc23)c1F [VEMURAFENIB]
Given back: > 30 µM

Asked: GET /values?readout=AC50&item= CC(=O)OCC(=O)[C@@]12OC3(CCCC3)O[C@@H]1C[C@H]1[C@@H]3CCC4=CC(=O)C=C[C@]4(C)[C@@]3(F)[C@@H](O)C[C@@]12C [AMCINONIDE]
Given back: > 10 µM

Asked: GET /values?readout=AC50&item= CC(=O)O[C@@]12CO[C@@H]1C[C@H](O)[C@@]1(C)C(=O)[C@H](O)C3=C(C)[C@@H](OC(=O)[C@H](O)[C@@H](NC(=O)OC(C)(C)C)c4ccccc4)C[C@@](O)([C@@H](OC(=O)c4ccccc4)[C@H]21)C3(C)C [DOCETAXEL ANHYDROUS]
Given back: > 30 µM

Asked: GET /values?readout=AC50&item= CC(=O)N(CC(O)CO)c1c(I)c(C(=O)NCC(O)CO)c(I)c(C(=O)NCC(O)CO)c1I (centres undefined) [IOHEXOL]
Given back: > 10 µM

Asked: GET /values?readout=AC50&item= C[N+](C)(C)CC(=O)O [BETAINE]
Given back: > 30 µM

Asked: GET /values?readout=AC50&item= CC1=CC(=O)c2ccccc2C1=O [MENADIONE]
Given back: > 10 µM

----------
I'd be grateful if you could share measured AC50 for these entries.
Assay target: 5-hydroxytryptamine receptor 1A (Homo sapiens, UniProt P08908); further: assay procedure not described here
Sequence (P08908 whole entry): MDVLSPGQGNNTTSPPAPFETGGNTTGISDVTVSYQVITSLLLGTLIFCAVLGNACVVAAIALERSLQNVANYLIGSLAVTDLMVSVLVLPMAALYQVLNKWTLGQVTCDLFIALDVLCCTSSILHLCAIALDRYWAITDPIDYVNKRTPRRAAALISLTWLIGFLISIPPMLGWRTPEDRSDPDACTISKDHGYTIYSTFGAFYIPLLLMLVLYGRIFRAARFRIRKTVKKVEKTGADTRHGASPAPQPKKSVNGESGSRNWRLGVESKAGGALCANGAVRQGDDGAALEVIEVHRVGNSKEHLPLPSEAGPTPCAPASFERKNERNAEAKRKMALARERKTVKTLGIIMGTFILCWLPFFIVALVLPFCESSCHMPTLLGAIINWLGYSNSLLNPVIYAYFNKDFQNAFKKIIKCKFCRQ
Format: functional, cell-based

Asked: GET /values?readout=AC50&item= COC(=O)C1=C(C)NC(C)=C(C(=O)OCC(C)C)C1c1ccccc1[N+](=O)[O-] (stereo not given)
Given back: > 10 µM

Asked: GET /values?readout=AC50&item= CN1C(=O)N(C)C2C1N(C)C(=O)N2C (stereo not given)
Given back: > 30 µM

Asked: GET /values?readout=AC50&item= CN(C/C=C/c1ccccc1)Cc1cccc2ccccc12
Given back: > 10 µM

Asked: GET /values?readout=AC50&item= C#C[C@]1(O)CC[C@H]2[C@@H]3CCC4=CCCC[C@@H]4[C@H]3CC[C@@]21C
Given back: > 30 µM

Asked: GET /values?readout=AC50&item= CC(C)Cc1ccc(CC(=O)O)cc1
Given back: > 30 µM

Asked: GET /values?readout=AC50&item= Nc1nc2ccc(OC(F)(F)F)cc2s1
Given back: > 30 µM

Asked: GET /values?readout=AC50&item= C[N+](C)(C)CCOC(N)=O
Given back: > 30 µM

Asked: GET /values?readout=AC50&item= Cc1cccc(C)c1NC(=O)C1CCCCN1C (stereo not given) [MEPIVACAINE]
Given back: > 30 µM

Asked: GET /values?readout=AC50&item= CN[C@@H](C)[C@H](O)c1ccccc1
Given back: > 10 µM

Asked: GET /values?readout=AC50&item= CC(C)C(=O)Nc1ccc([N+](=O)[O-])c(C(F)(F)F)c1 [FLUTAMIDE]
Given back: > 10 µM
